The measured values listed here are drawn from patent US20210246166A1.

target: recombinant human MASP2 active protease (amino acids 297-686, C-terminal His Tag) (human, UniProt O00187 297-686); experiment: cell-based or functional assay
Sequence (O00187 other isoform, or with tags, fused parts or gaps limits assumed): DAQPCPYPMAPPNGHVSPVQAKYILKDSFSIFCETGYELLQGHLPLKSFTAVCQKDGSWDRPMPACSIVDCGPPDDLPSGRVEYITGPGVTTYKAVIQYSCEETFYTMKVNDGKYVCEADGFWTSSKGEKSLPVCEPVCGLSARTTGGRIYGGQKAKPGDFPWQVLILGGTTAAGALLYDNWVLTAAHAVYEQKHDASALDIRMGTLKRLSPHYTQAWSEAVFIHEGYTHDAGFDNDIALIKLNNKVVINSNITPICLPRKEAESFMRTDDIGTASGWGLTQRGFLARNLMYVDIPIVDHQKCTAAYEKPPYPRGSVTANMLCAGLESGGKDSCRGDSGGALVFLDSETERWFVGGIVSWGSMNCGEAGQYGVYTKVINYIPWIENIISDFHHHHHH
Bridge positions count the residues as written; N and C are the ends. Square brackets hold non-standard residues; d marks the D form. Ends that are not written are not given here. Abu(4-CN) = N#CCC[C@H](N)C(=O)O; Pen = CC(C)(S)[C@H](N)C(=O)O; Sar = CNCC(=O)O
MEASUREMENT_NAME: human MASP2 IC50 (µM)
Write the number in µM without appending the unit.

[Q] Which human MASP2 IC50 is listed for [Sar]ICSRS[Abu(4-CN)]PPI[Pen]IPD-NH2 (disulfide 3-11; N-terminus assumed; SMILES CC[C@H](C)[C@H](NC(=O)CNC)C(=O)N[C@H]1CSSC(C)(C)[C@@H](C(=O)N[C@H](C(=O)N2CCC[C@H]2C(=O)N[C@@H](CC(=O)O)C(N)=O)[C@@H](C)CC)NC(=O)[C@H]([C@@H](C)CC)NC(=O)[C@@H]2CCCN2C(=O)[C@@H]2CCCN2C(=O)[C@H](CCC#N)NC(=O)[C@H](CO)NC(=O)[C@H](CCCNC(=N)N)NC(=O)[C@H](CO)NC1=O) [Example 321: ((N-Me)G)-IC+SRS-(Cnba)-PPI-(Pen)+IPD-NH2] ?
[A] 1.8
